// data source = patent EP4678639A1

assay: Solid-state stress stability test (temperature 60 °C); conditions: 60 °C, 1 month
Where a name gives a salt, the structure may show the parent alone.
property name: After 1 Month (%) Total Related substances

- compound: "Cc1nc2c(O[C@H]3CCOc4cc(F)cc(F)c43)cc(C(=O)N(C)C)cc2[nH]1 [Pidolate Salt]"
  output unit: "%"
  observed value: 0.353
- compound: "Cc1nc2c(O[C@H]3CCOc4cc(F)cc(F)c43)cc(C(=O)N(C)C)cc2[nH]1 [Phosphate Salt]"
  output unit: "%"
  observed value: 2.423
- compound: "Cc1nc2c(O[C@H]3CCOc4cc(F)cc(F)c43)cc(C(=O)N(C)C)cc2[nH]1 [Hydrobromide Salt]"
  output unit: "%"
  observed value: 8.905
- compound: "Cc1nc2c(O[C@H]3CCOc4cc(F)cc(F)c43)cc(C(=O)N(C)C)cc2[nH]1 [Sulfate Salt]"
  output unit: "%"
  observed value: 3.441

====

assay: Photostability test, visible light (1.2 Mlux·hr) exposure; conditions: Table 11 under heading Visible Light (1.2 Mlux-hr) Exposure Test
Where a name gives a salt, the structure may show the parent alone.
API: label(entry) gives 1 if the entry's After (%) Total Related substances is strictly smaller than 0.6%; on equality or larger values it gives -1.

- compound: "Cc1nc2c(O[C@H]3CCOc4cc(F)cc(F)c43)cc(C(=O)N(C)C)cc2[nH]1 [Malate Salt]"
  assigned label: 1
- compound: "Cc1nc2c(O[C@H]3CCOc4cc(F)cc(F)c43)cc(C(=O)N(C)C)cc2[nH]1 [Sulfate Salt]"
  assigned label: -1
- compound: "Cc1nc2c(O[C@H]3CCOc4cc(F)cc(F)c43)cc(C(=O)N(C)C)cc2[nH]1 [Maleate Salt]"
  assigned label: 1
- compound: "Cc1nc2c(O[C@H]3CCOc4cc(F)cc(F)c43)cc(C(=O)N(C)C)cc2[nH]1 [Hemisalicylate Salt]"
  assigned label: -1
- compound: "Cc1nc2c(O[C@H]3CCOc4cc(F)cc(F)c43)cc(C(=O)N(C)C)cc2[nH]1 [Phosphate Salt]"
  assigned label: 1
- compound: "Cc1nc2c(O[C@H]3CCOc4cc(F)cc(F)c43)cc(C(=O)N(C)C)cc2[nH]1 [Methanesulfonate Salt (Amorphous Form)]"
  assigned label: -1
- compound: "Cc1nc2c(O[C@H]3CCOc4cc(F)cc(F)c43)cc(C(=O)N(C)C)cc2[nH]1 [Hydrochloride Salt (Amorphous Form)]"
  assigned label: -1
- compound: "Cc1nc2c(O[C@H]3CCOc4cc(F)cc(F)c43)cc(C(=O)N(C)C)cc2[nH]1 [Pidolate Salt]"
  assigned label: 1
- compound: "Cc1nc2c(O[C@H]3CCOc4cc(F)cc(F)c43)cc(C(=O)N(C)C)cc2[nH]1 [Hydrobromide Salt]"
  assigned label: -1
- compound: "Cc1nc2c(O[C@H]3CCOc4cc(F)cc(F)c43)cc(C(=O)N(C)C)cc2[nH]1 [Methanesulfonate Salt (Crystalline Form)]"
  assigned label: 1

====

test: Photostability test, ultraviolet light (200 W·hr/m2) exposure; conditions: Table 12 summary
Structures can show the parent of a compound that is named as a salt.
property name: Change in Quality (%) Light (Ultraviolet) Degradant

- compound: "Cc1nc2c(O[C@H]3CCOc4cc(F)cc(F)c43)cc(C(=O)N(C)C)cc2[nH]1 [Methanesulfonate Salt (Crystalline Form)]"
  observed value: 0.046
- compound: "Cc1nc2c(O[C@H]3CCOc4cc(F)cc(F)c43)cc(C(=O)N(C)C)cc2[nH]1 [Malate Salt]"
  observed value: 0.007
- compound: "Cc1nc2c(O[C@H]3CCOc4cc(F)cc(F)c43)cc(C(=O)N(C)C)cc2[nH]1 [Pidolate Salt]"
  observed value: 0.019
- compound: "Cc1nc2c(O[C@H]3CCOc4cc(F)cc(F)c43)cc(C(=O)N(C)C)cc2[nH]1 [Methanesulfonate Salt (Amorphous Form)]"
  observed value: 0.082

====

Property: Change in Quality (%) Accelerated (4 weeks) Purity; scope: individual compounds
assay: Solid-state accelerated stability test (40 ± 2 °C/RH 75 ± 5 %); conditions: Table 12 summary
Structures can show the parent of a compound that is named as a salt.
property name: Change in Quality (%) Accelerated (4 weeks) Purity

- compound: "Cc1nc2c(O[C@H]3CCOc4cc(F)cc(F)c43)cc(C(=O)N(C)C)cc2[nH]1 [Pidolate Salt]"
  output unit: "%"
  observed value: -0.001
- compound: "Cc1nc2c(O[C@H]3CCOc4cc(F)cc(F)c43)cc(C(=O)N(C)C)cc2[nH]1 [Malate Salt]"
  output unit: "%"
  observed value: -0.090
- compound: "Cc1nc2c(O[C@H]3CCOc4cc(F)cc(F)c43)cc(C(=O)N(C)C)cc2[nH]1 [Methanesulfonate Salt (Amorphous Form)]"
  output unit: "%"
  observed value: -1.123
- compound: "Cc1nc2c(O[C@H]3CCOc4cc(F)cc(F)c43)cc(C(=O)N(C)C)cc2[nH]1 [Methanesulfonate Salt (Crystalline Form)]"
  output unit: "%"
  observed value: -0.462
- compound: "Cc1nc2c(O[C@H]3CCOc4cc(F)cc(F)c43)cc(C(=O)N(C)C)cc2[nH]1 [Hydrochloride Salt (Amorphous Form)]"
  output unit: "%"
  observed value: -0.260

====

assay: Solid-state stress stability test (temperature 60 °C); conditions: Table 12 summary
Structures can show the parent of a compound that is named as a salt.
property name: Change in Quality (%) 60 °C (4 weeks) Purity

- compound: "Cc1nc2c(O[C@H]3CCOc4cc(F)cc(F)c43)cc(C(=O)N(C)C)cc2[nH]1 [Hydrochloride Salt (Amorphous Form)]"
  observed value: -1.329
- compound: "Cc1nc2c(O[C@H]3CCOc4cc(F)cc(F)c43)cc(C(=O)N(C)C)cc2[nH]1 [Malate Salt]"
  observed value: -1.880
- compound: "Cc1nc2c(O[C@H]3CCOc4cc(F)cc(F)c43)cc(C(=O)N(C)C)cc2[nH]1 [Methanesulfonate Salt (Crystalline Form)]"
  observed value: -5.143
- compound: "Cc1nc2c(O[C@H]3CCOc4cc(F)cc(F)c43)cc(C(=O)N(C)C)cc2[nH]1 [Pidolate Salt]"
  observed value: -0.208

====

assay: Solid-state stress stability test (temperature 60 °C); conditions: Table 8, initial
Structures can show the parent of a compound that is named as a salt.
Classification field: enter Condition met for Initial (%) Degradant values not below 0.09%, Condition not met for values below it.

- molecule: "Cc1nc2c(O[C@H]3CCOc4cc(F)cc(F)c43)cc(C(=O)N(C)C)cc2[nH]1 [Methanesulfonate Salt (Crystalline Form)]"
  assigned label: "Condition met"
- molecule: "Cc1nc2c(O[C@H]3CCOc4cc(F)cc(F)c43)cc(C(=O)N(C)C)cc2[nH]1 [Methanesulfonate Salt (Amorphous Form)]"
  assigned label: "Condition met"
- molecule: "Cc1nc2c(O[C@H]3CCOc4cc(F)cc(F)c43)cc(C(=O)N(C)C)cc2[nH]1 [Hydrobromide Salt]"
  assigned label: "Condition met"
- molecule: "Cc1nc2c(O[C@H]3CCOc4cc(F)cc(F)c43)cc(C(=O)N(C)C)cc2[nH]1 [Malate Salt]"
  assigned label: "Condition not met"
- molecule: "Cc1nc2c(O[C@H]3CCOc4cc(F)cc(F)c43)cc(C(=O)N(C)C)cc2[nH]1 [Hemisalicylate Salt]"
  assigned label: "Condition not met"
- molecule: "Cc1nc2c(O[C@H]3CCOc4cc(F)cc(F)c43)cc(C(=O)N(C)C)cc2[nH]1 [Pidolate Salt]"
  assigned label: "Condition not met"
- molecule: "Cc1nc2c(O[C@H]3CCOc4cc(F)cc(F)c43)cc(C(=O)N(C)C)cc2[nH]1 [Maleate Salt]"
  assigned label: "Condition not met"
- molecule: "Cc1nc2c(O[C@H]3CCOc4cc(F)cc(F)c43)cc(C(=O)N(C)C)cc2[nH]1 [Sulfate Salt]"
  assigned label: "Condition met"
- molecule: "Cc1nc2c(O[C@H]3CCOc4cc(F)cc(F)c43)cc(C(=O)N(C)C)cc2[nH]1 [Phosphate Salt]"
  assigned label: "Condition not met"

====

Property: Change in Quality (%) Accelerated (4 weeks) Degradant; scope: individual molecules
assay: Solid-state accelerated stability test (40 ± 2 °C/RH 75 ± 5 %); conditions: Table 12 summary
Where a name gives a salt, the structure may show the parent alone.
property name: Change in Quality (%) Accelerated (4 weeks) Degradant

- molecule: "Cc1nc2c(O[C@H]3CCOc4cc(F)cc(F)c43)cc(C(=O)N(C)C)cc2[nH]1 [Pidolate Salt]"
  observed value: 0.002
- molecule: "Cc1nc2c(O[C@H]3CCOc4cc(F)cc(F)c43)cc(C(=O)N(C)C)cc2[nH]1 [Methanesulfonate Salt (Amorphous Form)]"
  observed value: 0.840
- molecule: "Cc1nc2c(O[C@H]3CCOc4cc(F)cc(F)c43)cc(C(=O)N(C)C)cc2[nH]1 [Malate Salt]"
  observed value: 0.045
- molecule: "Cc1nc2c(O[C@H]3CCOc4cc(F)cc(F)c43)cc(C(=O)N(C)C)cc2[nH]1 [Methanesulfonate Salt (Crystalline Form)]"
  observed value: 0.396
